test system: Pseudomonas aeruginosa (ATCC 27853); type: cell-based; conditions: ATCC 27853, 18 h
Ends that are not written are not given here.
Here, each record is paired with measured MIC data.

{"columns": ["RECORD_SEQUENCE", "COMPARISON_SIGN", "MIC / µg/mL"],
 "data": [
  ["IKHWEKVWKHGKKVL [IL15.1]", ">", 200],
  ["QAIIHNEKVQAHGKKVL [QL17]", ">", 200],
  ["IKHWKKVWKHWKKKL [IL15.4]", "=", 10],
  ["IKHWKKVWKHAKKVL [IL15.3]", "=", 10],
  ["IIHNEKVQAHGKKVL [IL15]", ">", 200],
  ["IKHWKKVWKHGKKVL [IL15.2]", ">", 200],
  ["IRHWRRVWRHWRRRL [IL15.5]", "=", 35]
]}

###

system: Staphylococcus aureus (ATCC 25923); type: cell-based; settings: ATCC 25923, 24 h
Ends that are not written are not given here.
MEASURED_PROPERTY: MBC (µg/mL)

{"columns": ["RECORD_SEQUENCE", "STUDY_TARGET", "COMPARISON_SIGN", "TEST_RESULT"],
 "data": [
  ["IKHWEKVWKHGKKVL [IL15.1]", "Staphylococcus aureus (ATCC 25923)", ">", 200],
  ["IRHWRRVWRHWRRRL [IL15.5]", "Staphylococcus aureus (ATCC 25923)", "=", 50],
  ["IKHWKKVWKHAKKVL [IL15.3]", "Staphylococcus aureus (ATCC 25923)", "=", 25],
  ["IKHWKKVWKHGKKVL [IL15.2]", "Staphylococcus aureus (ATCC 25923)", ">", 200],
  ["IIHNEKVQAHGKKVL [IL15]", "Staphylococcus aureus (ATCC 25923)", ">", 200],
  ["QAIIHNEKVQAHGKKVL [QL17]", "Staphylococcus aureus (ATCC 25923)", ">", 200],
  ["IKHWKKVWKHWKKKL [IL15.4]", "Staphylococcus aureus (ATCC 25923)", "=", 25]
]}

###

Measured MBC, listed per entry.
system: Pseudomonas aeruginosa (ATCC 27853); format: cell-based; conditions: ATCC 27853, 24 h
Ends that are not written are not given here.
MEASURED_PROPERTY: MBC

{"columns": ["RECORD_SEQUENCE", "MEASURED_PROPERTY", "TEST_RESULT"],
 "data": [
  ["IRHWRRVWRHWRRRL [IL15.5]", "MBC", "50 µg/mL"],
  ["IKHWKKVWKHGKKVL [IL15.2]", "MBC", "> 200 µg/mL"],
  ["IIHNEKVQAHGKKVL [IL15]", "MBC", "> 200 µg/mL"],
  ["IKHWKKVWKHAKKVL [IL15.3]", "MBC", "18 µg/mL"],
  ["IKHWEKVWKHGKKVL [IL15.1]", "MBC", "> 200 µg/mL"],
  ["QAIIHNEKVQAHGKKVL [QL17]", "MBC", "> 200 µg/mL"],
  ["IKHWKKVWKHWKKKL [IL15.4]", "MBC", "14 µg/mL"]
]}

###

// values below are reported MBC
tested on: Staphylococcus epidermidis (ATCC 12228); format: cell-based; conditions: ATCC 12228, 24 h
Ends that are not written are not given here.
MEASURED_PROPERTY: MBC (µg/mL)

{"columns": ["RECORD_SEQUENCE", "MEASURED_PROPERTY", "UNITS_SYMBOL", "COMPARISON_SIGN", "TEST_RESULT"],
 "data": [
  ["IKHWKKVWKHAKKVL [IL15.3]", "MBC", "µg/mL", "=", 12],
  ["IKHWKKVWKHWKKKL [IL15.4]", "MBC", "µg/mL", "=", 12],
  ["IKHWKKVWKHGKKVL [IL15.2]", "MBC", "µg/mL", ">", 200],
  ["IIHNEKVQAHGKKVL [IL15]", "MBC", "µg/mL", ">", 200],
  ["QAIIHNEKVQAHGKKVL [QL17]", "MBC", "µg/mL", ">", 200],
  ["IKHWEKVWKHGKKVL [IL15.1]", "MBC", "µg/mL", ">", 200],
  ["IRHWRRVWRHWRRRL [IL15.5]", "MBC", "µg/mL", "=", 15]
]}

###

tested on: Staphylococcus epidermidis (ATCC 12228); format: cell-based; details: ATCC 12228, 18 h
Ends that are not written are not given here.
Reported values of MIC for individual entries

{"columns": ["RECORD_SEQUENCE", "COMPARISON_SIGN", "MIC / mg/L"],
 "data": [
  ["IKHWKKVWKHAKKVL [IL15.3]", "=", 9],
  ["IKHWEKVWKHGKKVL [IL15.1]", ">", 200],
  ["IRHWRRVWRHWRRRL [IL15.5]", "=", 12],
  ["IKHWKKVWKHWKKKL [IL15.4]", "=", 9],
  ["IIHNEKVQAHGKKVL [IL15]", ">", 200],
  ["IKHWKKVWKHGKKVL [IL15.2]", ">", 200],
  ["QAIIHNEKVQAHGKKVL [QL17]", ">", 200]
]}

From: paper PMC10522709
